# System: Rhizoctonia cerealis
# PROTOCOL DETAILS: Fungicidal activity, fungi growth rate method, RC
# Format: cell-based
# TEST CONTEXT: Ceratobasidium cereale; 50 μg/mL; read-out: Fungicidal activity, inhibition, RC
Let's look at some molecules and their measured inhibition at 50 µg/mL.
PROPERTY MEASURED: inhibition at 50 µg/mL (%)

                                   molecule         target_entity       property_measured  meas_value
0  CCOC(=O)c1csc(C2CCN(C(=O)/C(=C/c3ccccc3)NC(=O)c3ccccc3)CC2)n1  Rhizoctonia cerealis  inhibition at 50 µg/mL           4
1  O=C(N/C(=C\c1ccccc1)C(=O)N1CCC(O)(c2ccc(Br)cc2)CC1)c1ccco1  Rhizoctonia cerealis  inhibition at 50 µg/mL          22
2  CC(C)(C)OC(=O)N1CCC(C(=O)N/C(=C\c2ccccc2)C(=O)N2CCC(O)(c3ccc(Br)cc3)CC2)CC1  Rhizoctonia cerealis  inhibition at 50 µg/mL          26
3  O=C(NC(Cc1ccccc1)C(=O)N1CCC(O)(c2ccc(Br)cc2)CC1)C1CCCCC1 (stereo not shown)  Rhizoctonia cerealis  inhibition at 50 µg/mL          23
4  O=C(N/C(=C\c1ccccc1)C(=O)N1CCC(O)(c2ccc(Br)cc2)CC1)c1cccc([N+](=O)[O-])c1  Rhizoctonia cerealis  inhibition at 50 µg/mL          24
5  O=C(N/C(=C\c1ccc(Br)cc1)C(=O)N1CCC(O)(c2ccc(Br)cc2)CC1)c1ccccc1  Rhizoctonia cerealis  inhibition at 50 µg/mL          19
6  O=C(NC1CCCCC1)/C(=C/c1ccccc1)NC(=O)c1ccccc1  Rhizoctonia cerealis  inhibition at 50 µg/mL          10

* * *

# System: tobacco mosaic virus (TMV)
# PROTOCOL DETAILS: Anti-TMV protective activity (protection mode), live friction inoculation on tobacco seedlings
# Format: in vivo
# TEST CONTEXT: Tobacco mosaic virus, read-out: Anti-TMV activity, Protection effect (inhibition)
Let's look at some compounds and their measured inhibition at 100 µg/mL.
PROPERTY MEASURED: inhibition at 100 µg/mL (%)

In [3]: df
Out[3]:
                                   compound               target_entity  meas_value
0  CONC(=O)/C(=C/c1csc(C2CCN(C(=O)OC(C)(C)C)CC2)n1)NC(=O)c1ccccc1 [Compound 42]  tobacco mosaic virus (TMV)          41
1  O=C(N/C(=C\c1ccccc1)C(=O)N1CCC(O)(c2ccc(Br)cc2)CC1)C1CCCCC1 [Compound 2]  tobacco mosaic virus (TMV)          43
2  O=C(N/C(=C\c1ccc(Cl)cc1)C(=O)N1CCC(O)(c2ccc(Br)cc2)CC1)c1ccccc1 [Compound 18]  tobacco mosaic virus (TMV)          39
3  O=C(N/C(=C\c1ccc(F)cc1)C(=O)N1CCC(O)(c2ccc(Br)cc2)CC1)c1ccccc1 [Compound 17]  tobacco mosaic virus (TMV)          33
4  O=C(NCc1ccc(Br)cc1)/C(=C/c1ccccc1)NC(=O)c1ccccc1 [Compound 46]  tobacco mosaic virus (TMV)          41
5  O=C(N/C(=C\c1cccs1)C(=O)N1CCC(O)(c2ccc(Br)cc2)CC1)c1ccccc1 [Compound 24]  tobacco mosaic virus (TMV)          36
6  COC(=O)CCNC(=O)/C(=C/c1ccccc1)NC(=O)c1ccccc1 [Compound 35]  tobacco mosaic virus (TMV)           3
7  O=C(N/C(=C\c1ccccc1)C(=O)N1CCC(O)(c2ccc(Br)cc2)CC1)c1ccc(C(F)(F)F)cc1 [Compound 9]  tobacco mosaic virus (TMV)          60

Data origin, for the record: patent US11166460B2
